# System: Caco-2
# assay: cell viability relative to DMSO; higher = less toxic
# condition notes: 72 h; 1000 nM
reported metric: cell viability (%)
Kindly answer with a numeric value in %, unit omitted.

Enquiry: Assign cell viability to the following record: O=C(Nc1ccc(Cl)cc1)Nc1cccc(-c2cccc(N3CCCC3)n2)c1
Return: 93.7

Enquiry: Answer with reported cell viability of CC(=O)O[C@H]1C[C@H](O[C@H]2[C@@H](O)C[C@H](O[C@H]3[C@@H](O)C[C@H](O[C@H]4CC[C@@]5(C)[C@H](CC[C@@H]6[C@@H]5C[C@@H](O)[C@]5(C)[C@@H](C7=CC(=O)OC7)CC[C@]65O)C4)O[C@@H]3C)O[C@@H]2C)O[C@H](C)[C@H]1O[C@@H]1O[C@H](CO)[C@@H](O)[C@H](O)[C@H]1O [lanatoside-C]
Return: 17.6

Enquiry: Give reported cell viability value for CN1CC[C@@H](NC(=O)Nc2ccc(C#N)cc2)C[C@@H]1c1nc2ccccc2[nH]1
Return: 97.1

Enquiry: Name the recorded cell viability of the compound listed here: CN1CCC(=C2c3ccccc3C=Cc3ccccc32)CC1
Return: 90.3

Enquiry: Given N=C(Nc1ccccc1)c1cccs1 , respond with its cell viability.
Return: 93.7

Enquiry: Consider the compound CC(=O)N[C@H]1[C@@H](OC(C)C)O[C@H](COC(C)=O)[C@@H](OC(C)=O)[C@@H]1OC(C)=O and give its recorded cell viability.
Return: 101

Source: the supplement of paper PMC13380429
